measuredEndpoint: melting point

Some solved entries appear below for comparison.
## Task Given the entry `CNC(=S)/C(=N/OC)c1ccccc1CO/N=C(\C)c1cccc(C(F)(F)F)c1` , report its measured melting point.
## Result 100 to 106 °C

## Task Now give it for `[H]/N=C(OC)/C(=N/OC)c1ccccc1CON=C(C)c1ccc(Cl)cc1` too.
## Result 73 to 75 °C

***
## Task Given the entry `C/N=C(OC)/C(=N/OC)c1ccccc1CO/N=C(\C)c1ccc(Cl)cc1` , report its measured melting point.
## Result 79 to 80 °C

## Task Now give it for `CO/N=C(N)/C(=N/OC)c1ccccc1CO/N=C(\C)c1ccc(Cl)cc1` too.
## Result 76 to 78 °C

## Task Now give it for `CNC(=S)/C(=N/OC)c1ccccc1CON=C(C)c1ccc(Cl)cc1` too.
## Result 88 to 89 °C

Origin of values: patent US6342633B1
